target or test system: T1, human SIRPβ1 domain 1 (D1) Fc fusion (human, UniProt O00241 30-148)
T1 construct: Made in HEK293/T cells with a heterologous signal peptide; also called Human SIRPβ1 D1-Fc; Human SIRPβ1-Fc; not shown: C-terminal human IgG1 Fc
T1 sequence (O00241 30-148 limits assumed): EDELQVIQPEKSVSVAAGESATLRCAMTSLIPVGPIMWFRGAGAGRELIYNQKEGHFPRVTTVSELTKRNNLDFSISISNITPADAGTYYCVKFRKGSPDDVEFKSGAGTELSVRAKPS
measurement protocol: Octet, IgG avid

{"columns": ["binder", "unit text", "Kd"],
 "data": [
  ["SB-38 (antibody, V domains shown, IgG) VH: QVQLVQSGAEVKKPGASVKVSCKASGYTFTSYYMHWVRQAPGQGLEWMGIINPSGGSTSYAQKFQGRVTMTRDTSTSTVYMELSSLRSEDTAVYYCARESGTDFGTISYWGQGTLVTVSS VL: DIQMTQSPSSVSASVGDRVTITCRASQGISSWLAWYQQKPGKAPKLLIYAASSLQSGVPSRFSGSGSGTDFTLTISSLQPEDFATYYCQQAVSYPITFGGGTKVEIK", "nM", 7.33],
  ["SB-28 (antibody, V domains shown, IgG) VH: QLQLQESGPGLVKPSETLSLTCTVSGGSISSSSYYWGWIRQPPGKGLEWIGSISYSGSTYYNPSLKSRVTISVDTSKNQFSLKLSSVTAADTAVYYCARDPRDYSSGSSGGGWGYFDLWGRGTLVTVSS VL: EIVLTQSPGTLSLSPGERATLSCRASQSVSSSYLAWYQQKPGQAPRLLIYGASSRATGIPDRFSGSGSGTDFTLTISRLEPEDFAVYYCQQDGNFPLTFGGGTKVEIK", "nM", 5.59],
  ["SB-2 (antibody, V domains shown, IgG; also called SB-2 (p)) VH: QVQLVESGGGVVQPGRSLRLSCAASGFTFSSYGMNWVRQAPGKGLEWVAVIWYDGSNKYYADSVKGRFTISRDNSKNTLYLQMNSLRAEDTAVYYCARDQTAAAAIWGMDVWGQGTTVTVSS VL: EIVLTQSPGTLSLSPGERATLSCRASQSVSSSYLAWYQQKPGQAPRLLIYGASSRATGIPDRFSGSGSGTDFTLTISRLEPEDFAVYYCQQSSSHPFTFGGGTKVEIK", "nM", 1.97]
]}
